assay-system: Human BCMA (human) (UniProt Q02223)
assay-notes: SPR, IgG on chip, huBCMA analyte
assay-endpoint: koff
Output should be the measured figure followed by the unit it is expressed in.

[[record]]
binder = "COMBO_Rd4_6nM_C21 (antibody, V domains shown, IgG) VH: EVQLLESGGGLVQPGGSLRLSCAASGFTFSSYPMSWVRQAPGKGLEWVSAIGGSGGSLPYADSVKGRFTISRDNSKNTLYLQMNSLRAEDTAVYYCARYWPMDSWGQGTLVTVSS VL: EIVLTQSPGTLSLSPGERATLSCRASQSVSAAYLAWYQQKPGQAPRLLMYDASIRATGIPDRFSGSGSGTDFTLTISRLEPEDFAVYYCQQYMCWPLTFGQGTKVEIK"
observed = "7.34e-05 s⁻¹"

[[record]]
binder = "COMBO_Rd4_6nM_C25 (antibody, V domains shown, IgG) VH: EVQLLESGGGLVQPGGSLRLSCAASGFTFSSYPMSWVRQAPGKGLEWVSAIGGSGGSTYYADSVKGRFTISRDNSKNTLYLQMNSLRAEDTAVYYCARYWPMDPWGQGTLVTVSS VL: EIVLTQSPGTLSLSPGERATLSCRASQSVSSPYLAWYQQKPGQAPRLLMYDASIRATGIPDRFSGSGSGTDFTLTISRLEPEDFAVYYCQQYQSWPLTFGQGTKVEIK"
observed = "0.000113 s⁻¹"

[[record]]
binder = "COMBO_Rd4_0.6nM_C19 (antibody, V domains shown, IgG) VH: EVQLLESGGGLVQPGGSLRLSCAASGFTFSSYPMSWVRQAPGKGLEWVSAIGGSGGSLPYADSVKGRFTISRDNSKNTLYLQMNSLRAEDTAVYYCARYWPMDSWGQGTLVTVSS VL: EIVLTQSPGTLSLSPGERATLSCRASQSVSAVYLAWYQQKPGQAPRLLMYDASIRATGIPDRFSGSGSGTDFTLTISRLEPEDFAVYYCQQYRAWPLTFGQGTKVEIK"
observed = "0.000155 s⁻¹"

[[record]]
binder = "A02_Rd4_6nM_C23 (antibody, V domains shown, IgG) VH: EVQLLESGGGLVQPGGSLRLSCAASGFTFSSYAMNWVRQAPGKGLEWVSAISDSGGSGWYADSVKGRFTISRDNSKNTLYLQMNSLRAEDTAVYYCARYWPMSLWGQGTLVTVSS VL: EIVLTQSPGTLSLSPGERATLSCRASQSVSVEYLAWYQQKPGQAPRLLMYDASIRATGIPDRFSGSGSGTDFTLTISRLEPEDFAVYYCQQYARWPLTFGQGTKVEIK"
observed = "0.000255 s⁻¹"


Next binder, please.
Prompt: For the binder A02_Rd4_6nM_C03 (antibody, V domains shown, IgG) VH: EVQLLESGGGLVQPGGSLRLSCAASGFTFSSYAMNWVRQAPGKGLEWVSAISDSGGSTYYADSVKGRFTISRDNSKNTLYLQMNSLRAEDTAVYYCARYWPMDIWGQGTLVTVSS VL: EIVLTQSPGTLSLSPGERATLSCRASQSVSNLYLAWYQQKPGQAPRLLMYDASIRATGIPDRFSGSGSGTDFTLTISRLEPEDFAVYYCQQYQGWPLTFGQGTKVEIK , what koff is on record?
Completion: 0.000126 s⁻¹

# credit: patent US20190241669A1
